Origin of the recorded values: paper PMC8306876

Target: COX-1 (Ovis aries, UniProt P05979)
Construct: purchased Cayman 701050
Sequence (P05979 25-600): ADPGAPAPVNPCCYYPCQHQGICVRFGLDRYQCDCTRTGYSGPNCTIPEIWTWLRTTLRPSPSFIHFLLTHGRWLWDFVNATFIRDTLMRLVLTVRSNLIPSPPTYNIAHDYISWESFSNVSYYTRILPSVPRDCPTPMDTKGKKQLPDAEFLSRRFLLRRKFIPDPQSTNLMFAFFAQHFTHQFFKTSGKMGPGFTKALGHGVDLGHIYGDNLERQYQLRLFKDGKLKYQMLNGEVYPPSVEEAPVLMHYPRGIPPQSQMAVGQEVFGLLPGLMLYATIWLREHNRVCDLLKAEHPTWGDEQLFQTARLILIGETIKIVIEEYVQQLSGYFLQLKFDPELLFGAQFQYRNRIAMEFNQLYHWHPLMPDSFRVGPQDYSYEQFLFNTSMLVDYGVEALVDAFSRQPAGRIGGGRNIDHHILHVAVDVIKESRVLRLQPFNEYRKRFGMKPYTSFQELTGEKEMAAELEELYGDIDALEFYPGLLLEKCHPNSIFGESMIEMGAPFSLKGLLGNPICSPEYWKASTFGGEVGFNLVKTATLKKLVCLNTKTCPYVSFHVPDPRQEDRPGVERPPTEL
Experiment: Cyclooxygenase inhibition assay (Cayman kit No. 701050, COX peroxidase activity), COX-1
Format: biochemical
Settings: incubation for 2 min; mean (SD); n = 3
Assign IC50 to each entry below.
Report the value in µM with no unit label.

For the compound COc1ccccc1N1CCN(C(=O)CN2C(=O)c3ccccc3C2=O)CC1 [G] , what IC50 is on record? 101

For the compound COc1ccc(N2CCN(C(=O)CN3C(=O)c4ccccc4C3=O)CC2)cc1 [Compound I] , what IC50 is on record? 94.4

For the compound COc1ccccc1N1CCN(CN2C(=O)c3ccccc3C2=O)CC1 [B] , what IC50 is on record? 71

For the compound O=C1c2ccccc2C(=O)N1CN1CCN(c2cccc(C(F)(F)F)c2)CC1 [Compound C] , what IC50 is on record? 104

For the compound COc1cccc(N2CCN(C(=O)CN3C(=O)c4ccccc4C3=O)CC2)c1 [Compound H] , what IC50 is on record? 176

For the compound O=C1c2ccccc2C(=O)N1CN1CCN(c2ccccc2)CC1 [A] , what IC50 is on record? 238

For the compound O=C(CN1C(=O)c2ccccc2C1=O)N1CCN(c2ccccc2)CC1 [E] , what IC50 is on record? 76.7

For the compound O=C(CN1C(=O)c2ccccc2C1=O)N1CCN(c2cccc(C(F)(F)F)c2)CC1 [F] , what IC50 is on record? 171

For the compound O=C1c2ccccc2C(=O)N1CN1CCN(C(c2ccccc2)c2ccccc2)CC1 [Compound D] , what IC50 is on record? 66.2
